test system: HCI11 (cells of an ER-positive luminal breast cancer xenograft); experiment: cell viability (% of vehicle); higher = less cytotoxic; conditions: 10 µM; 72 h;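 also: PDX cells carrying CMV promoter-driven luciferase, viability read as total photon flux per second by IVIS imaging following D-luciferin, vehicle control 0.1% DMSO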
Each entry below lists one item and its recorded cell viability value.
Reply: number alone, nothing else.

Known results for compounds:
compound: CC(NCc1ccc(OCc2cccc(F)c2)cc1)C(N)=O.CS(=O)(=O)O (configuration not stated) [Safinamide Mesylate]
test-value: 161

compound: CC(C)CN(CC(O)C(Cc1ccccc1)NC(=O)OC1CCOC1)S(=O)(=O)c1ccc(N)cc1 (configuration not stated)
test-value: 104

compound: COc1cc(C(C)=O)ccc1OCCCN1CCC(c2noc3cc(F)ccc23)CC1
test-value: 103

Query: Give the measured cell viability for CS(=O)(=O)O.Cc1ccc(NC(=O)c2ccc(CN3CCN(C)CC3)cc2)cc1Nc1nccc(-c2cccnc2)n1 [Imatinib Mesylate (STI571)]
Result: 69.7

Query: Give the measured cell viability for O=C(C=Cc1ccc(O)c(O)c1)OC1CC(O)(C(=O)O)CC(O)C1O (configuration not stated)
Result: 95.8

Query: Give the measured cell viability for "Cc1nc(Nc2ncc(C(=O)Nc3c(C)cccc3Cl)s2)cc(N2CCN(CCO)CC2)n1"
Result: 60.3

Query: Give the measured cell viability for "CN(C)CCC=C1c2ccccc2Sc2ccc(Cl)cc21"
Result: 93.9

---

Each entry below lists one item and its recorded cell viability value.
tested on: WHIM2 (cells of a triple-negative basal-like breast cancer xenograft); assay: cell viability (% of vehicle); higher = less cytotoxic; details: 10 µM; 72 h
Reply: number alone, nothing else.

compound: C#C[C@]1(O)CC[C@H]2[C@@H]3CCC4=CC(=O)CC[C@@H]4[C@H]3C(=C)C[C@@]21CC
measured-target: WHIM2
cell viability: 112
//
compound: COc1cc(OC)c(C=CS(=O)(=O)Cc2ccc(OC)c(NCC(=O)[O-])c2)c(OC)c1.[Na+]
measured-target: WHIM2
cell viability: 73.9
//
compound: CN1CCCC[C@H]1CCN1c2ccccc2Sc2ccc(S(C)=O)cc21.O=S(=O)(O)c1ccccc1 (some centres undefined) [Mesoridazine Besylate]
measured-target: WHIM2
cell viability: 85.8

Please examine the following record next.
Query: Give the measured cell viability for CCC1C(O)C2C3CCC(C(C)CCC(=O)O)C3(C)CCC2C2(C)CCC(O)CC12 (centres undefined)
Result: 120

---

tested on: WHIM30 (cells of a triple-negative basal-like breast cancer xenograft); experiment: cell viability (% of vehicle); higher = less cytotoxic; conditions: 10 µM; 72 h
Each entry below lists one item and its recorded cell viability value.

compound: O=C([O-])C(O)C(O)C(O)C(O)C(O)CO.O=C([O-])C(O)C(O)C(O)C(O)C(O)CO.[Ca+2] (configuration not stated) [Calcium Gluceptate]
measured-target: WHIM30
cell viability: 141

Query: Give the measured cell viability for Nc1nc(=O)c2c([nH]1)NCC(CNc1ccc(C(=O)NC(CCC(=O)[O-])C(=O)[O-])cc1)N2C=O.O.O.O.O.O.[Ca+2] (configuration not stated)
Result: 156

Query: Give the measured cell viability for CC(C)C1=CC(=C2NNC(=O)N2c2ccc3c(ccn3C)c2)C(=O)C=C1O [Ganetespib (STA-9090)]
Result: 96.6

Query: Give the measured cell viability for C[N+]1(C)[C@@H]2C[C@@H](OC(=O)C(O)(c3cccs3)c3cccs3)C[C@H]1[C@@H]1O[C@@H]12.[Br-] [Tiotropium Bromide]
Result: 125

Query: Give the measured cell viability for "CN1CCN(c2ccc3c(c2)NC(=C2C(=O)N=c4cccc(F)c4=C2N)N3)CC1"
Result: 104

Query: Give the measured cell viability for CC(=O)OC1(C(C)=O)CCC2C3C=C(Cl)C4=CC(=O)C5CC5C4(C)C3CCC21C (configuration not stated) [Cyproterone Acetate]
Result: 128
